target: T1, purified interference factor(s) from serum of Donor B; test: Biacore, immobilized interference factor
T1 construct: text names Donors 8, 19 and 30
Each entry below carries its recorded binding vs Reference Sequence (=100%).
Property measured: binding vs Reference Sequence (=100%)

| Binder | Recorded result |
| --- | --- |
| SEQ ID NO 71 (VHH, S113G) VHH: EVQLVESGGGLVQPGGSLRLSCAASRSIGRLDRMGWYRHRPGEPRELVATITGGSSINYGDSVKGRFTISIDNSKNTVYLQMNSLRPEDTAVYYCNFNKYVTSRDTWGQGTLVTVSG | 105 |
| SEQ ID NO 83 (VHH, T87A) VHH: EVQLVESGGGLVQPGGSLRLSCAASRSIGRLDRMGWYRHRPGEPRELVATITGGSSINYGDSVKGRFTISIDNSKNTVYLQMNSLRPEDAAVYYCNFNKYVTSRDTWGQGTLVTVSS | 73 |
| SEQ ID NO 78 (VHH, Q13R) VHH: EVQLVESGGGLVRPGGSLRLSCAASRSIGRLDRMGWYRHRPGEPRELVATITGGSSINYGDSVKGRFTISIDNSKNTVYLQMNSLRPEDTAVYYCNFNKYVTSRDTWGQGTLVTVSS | 96 |
| SEQ ID NO 74 (VHH, C-terminal: G) VHH: EVQLVESGGGLVQPGGSLRLSCAASRSIGRLDRMGWYRHRPGEPRELVATITGGSSINYGDSVKGRFTISIDNSKNTVYLQMNSLRPEDTAVYYCNFNKYVTSRDTWGQGTLVTVSS | 41 |
| SEQ ID NO 89 (VHH, L11S, P14A, T110Q, S112G, S113G) VHH: EVQLVESGGGSVQAGGSLRLSCAASRSIGRLDRMGWYRHRPGEPRELVATITGGSSINYGDSVKGRFTISIDNSKNTVYLQMNSLRPEDTAVYYCNFNKYVTSRDTWGQGTLVQVGG | 5 |

Ref: patent US20140205597A1
